- Assay Procedure: chemical genetic growth profiling, strain panel (AID 1159580);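 further: tested at 20 µM; growth read once vehicle control cultures reached saturation at 30 °C; 1 = growth at the plate median or of vehicle wells; lower values mean less growth of the strain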
- Condition Context: S. cerevisiae deletion strains, growth OD, locus YGL167C, strain pmr1, hits give low values
Among all 5,500 compounds or so, about 2,000 (36%) were called active. Inconclusive results (about 18%) are left out. The list shows a part of the results.
Measurement Name: normalized growth
One number for each entry.

Consider the following illustrative entries.
CN(N=O)C(=O)N[C@@H]1[C@@H](O)[C@H](O)[C@@H](CO)O[C@@H]1O	0.993
CC1(C)O[C@@H]2CC3C4C[C@H](F)C5=CC(=O)C=CC5(C)C4C(O)CC3(C)[C@]2(C(=O)CO)O1 (stereo not given in full)	0.996

I have 6 compounds here; please give me normalized growth for each one.
1. CC(=O)O[C@@H]1CC2C(C)(C)CCC(=O)[C@]2(C)C2CC[C@@]3(C)[C@H](c4ccoc4)OC(=O)C4OC43[C@@]21C (stereo not given in full)
2. CC(=O)N(O)CCCCCNC(=O)CCC(=O)N(O)CCCCCNC(=O)CCC(=O)N(O)CCCCCN
3. CC(=O)O[C@@H]1CC2C(C)(C)C(=O)CC[C@]2(C)C2CC[C@@]3(C)[C@H](c4ccoc4)OC(=O)C4OC43[C@@]21C (stereo not given in full)
4. O=C(O)c1nc2cc(Cl)c(Cl)cc2[nH]c1=O
5. CC(=O)OCC(=O)[C@H]1CCC2C3CC=C4C[C@@H](O)CC[C@]4(C)C3CC[C@@]21C (stereo not given in full)
6. CC(=O)[C@H]1CCC2C3CC=C4C[C@@H](O)CC[C@]4(C)C3CC[C@@]21C (stereo not given in full)

[out]
[1.01, 0.978, 0.989, 1.01, 1, 0.996]

I have 2 compounds here; please give me normalized growth for each one.
1. CCC(/C=C/[C@@H](C)[C@H]1CCC2C3CC=C4C[C@@H](O)CC[C@]4(C)C3CC[C@@]21C)C(C)C (stereo not given in full)
2. COCCOC(=O)C1=C(C)NC(C)=C(C(=O)OC(C)C)C1c1cccc([N+](=O)[O-])c1 (stereo not given)

[out]
[0.975, 1]
